Cited source for all entries: patent US8232278B2

System: HCV replicon
Assay: Anti-HCV assay / replicon assay (EC50, luciferase read-out)
Format: cell-based, hepatitis C virus (HCV)
Conditions: CC50/EC50 ratio (selectivity index)
// classify: if (CC50/EC50 < 70) y else n

CCCCOc1nc(N)nc2ccc(-c3ccc(F)cc3)nc12 [Example 290]    y

Request: Determine if CC(=O)Nc1ccc(-c2ccc3nc(N)nc(OCC4CC4)c3n2)cc1 [Example 356] shows CC50/EC50 strictly lower than 70.
Response: n

Request: Subsequent entry: CCCCCOc1nc(N)nc2ccc(-c3cccc(F)c3)nc12 [Example 298]
Response: n

Request: Proceed to Nc1nc(N2CCN(C(=O)COc3ccc(Cl)cc3)CC2)c2nc(-c3ccc4c(c3)OCO4)ccc2n1 [Example 187]
Response: y

Request: Next record, please: CCC(C)Oc1nc(N)nc2ccc(-c3ccc(F)cc3)nc12 (stereo not shown) [Example 296]
Response: y

Request: Moving on to the next molecule: Nc1nc(OCC2CC2)c2nc(-c3ccc(F)cc3)ccc2n1 [Example 326]
Response: n

Request: Entry to check: COc1ccc(-c2ccc3nc(N)nc(N4CCN(CC(=O)N5CCCC5)CC4)c3n2)cc1OC [Example 263]
Response: n
